Test system: Septoria tritici
testName: Leaf blotch of wheat (SEPTTR) disease control on wheat seedlings
Type: in vivo, Mycosphaerella graminicola (anamorph Septoria tritici)
conditionSummary: Zymoseptoria tritici, 24 h, 1DP (1 Day Protectant), 100 ppm, high volume application, read-out: SEPTTR disease control rating (% Control)
Recorded pest or weed control at 100 ppm by entry

Take a look at these entries with their results.
Kindly note the recorded pest or weed control at 100 ppm for CCCC[C@H]1[C@H](C)OC(=O)[C@@H](NC(=O)c2nccc(OC)c2O)COC[C@@H]1OCc1ccccc1 [Compound 37] , which is > 70%

COc1ccnc(C(=O)N[C@H]2COC[C@H](OC(=O)C3CC3)[C@@H](CCC(C)C)[C@H](C)OC2=O)c1O [Compound 36] has a reported pest or weed control at 100 ppm of < 70%

Sure, the documented pest or weed control at 100 ppm for COc1ccnc(C(=O)N[C@H]2COC[C@H](Oc3ccccc3)[C@@H](CCC(C)C)[C@H](C)OC2=O)c1O [Compound 60] is > 70%

Short answer for COc1ccnc(C(=O)N[C@H]2COC[C@H](Oc3ccc(C)cc3)[C@@H](Cc3ccc(F)cc3)[C@H](C)OC2=O)c1O [Compound 23] : pest or weed control at 100 ppm was > 70%

get_value(item= CCCC[C@H]1[C@H](C)OC(=O)[C@@H](NC(=O)c2nccc(OC)c2O)COC[C@@H]1OCC1CC1 [Compound 3] , readout=pest or weed control at 100 ppm) returns > 70%

More entries:
Value of measured pest or weed control at 100 ppm for the entry COc1ccnc(C(=O)N[C@H]2COC[C@H](OCC(C)C)[C@@H](Cc3ccccc3)[C@H](C)OC2=O)c1OCOC(C)=O [Compound 85] : < 70%

Value source: patent US9549556B2
